Hey, just so you know, these numbers are from paper PMC5540273.

# Test system: ADCK3
# Construct: gene CABC1
# experimental.context: concentration: 1 μM, replicates: in singlicate; n = 1;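 further: KINOMEscan kinase panel screen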
quantity: %Inh

Study these solved cases before continuing.
[
  {
    "molecule": "CCc1ccc(-c2ccc3c(c2)-c2nn(C)cc2S(=O)(=O)N3C)cc1",
    "system.name": "ADCK3",
    "observed.measurement": "0%"
  },
  {
    "molecule": "Nc1ncnc2c1ncn2-c1ccc(Cl)cc1 [AH2635]",
    "system.name": "ADCK3",
    "observed.measurement": "24%"
  },
  {
    "molecule": "Nc1ncnc2c1ncn2-c1cccc(F)c1 [SKF-97560]",
    "system.name": "ADCK3",
    "observed.measurement": "21%"
  },
  {
    "molecule": "Nc1nc(-c2ccccc2F)c(-c2ccnc3ccccc23)s1 [GW560459]",
    "system.name": "ADCK3",
    "observed.measurement": "0%"
  },
  {
    "molecule": "COC(=O)c1c(-c2ccccc2)c2cc(Br)ccc2c(=O)n1Cc1ccc(NC(=O)CCC(=O)O)cc1",
    "system.name": "ADCK3",
    "observed.measurement": "0%"
  }
]

Quick check: %Inh on ADCK3, item COC(=O)c1c(-c2ccccc2)c2cc(Br)ccc2c(=O)n1Cc1ccc(S(C)(=O)=O)cc1 ? 12%

Give %Inh (ADCK3) of the following molecule: COc1cc2ncn(-c3cc(OCCCc4ccccc4)c(C(N)=O)s3)c2cc1OC [GSK205189] 24%

----------
# Test system: ABL1-nonphosphorylated
# experimental.context: concentration: 1 μM, replicates: in singlicate; n = 1
quantity: %Inh (%)
// note: answer is a bare numeric in %

In the examples that follow, each entry is paired with its recorded %Inh.
[
  {
    "compound": "COC(=O)c1c(-c2ccccc2)c2cc(Br)ccc2c(=O)n1Cc1ccc(NC(=O)CCC(=O)O)cc1",
    "quantity": "%Inh",
    "observed.measurement": 38
  },
  {
    "compound": "O=C(Nc1n[nH]c2nc(-c3ccccc3)c(Br)cc12)C1CC1 [SB-708998]",
    "quantity": "%Inh",
    "observed.measurement": 43
  },
  {
    "compound": "OCCCNc1nccc(-c2c(-c3cccc(C(F)(F)F)c3)nn3cc(C(F)(F)F)ccc23)n1 [GW630813]",
    "quantity": "%Inh",
    "observed.measurement": 0
  },
  {
    "compound": "COc1cc2nccc(Nc3ccc(OCc4ccc(NC(C)=O)cc4)cc3)c2cc1OC.Cl [GW440135]",
    "quantity": "%Inh",
    "observed.measurement": 17
  }
]

For the next question, use this compound.
Need %Inh, item CCC(=O)c1c(-c2ccccc2)c2cc(Cl)ccc2c(=O)n1Cc1cc(S(C)(=O)=O)n(CCC(C)(C)O)n1 6

----------
# Test system: ITK
# experimental.context: concentration: 1 μM, replicates: in singlicate; n = 1
Threshold-based label: %Inh under 4% gives criterion met, %Inh not under 4% gives criterion not met.

[
  {
    "chemical.smiles": "COc1cccc(C2=C(Nc3cccc(C(=O)O)c3)C(=O)NC2=O)c1",
    "group.label": "criterion met"
  },
  {
    "chemical.smiles": "CCS(=O)(=O)c1ccc(OC)c(Nc2ncc(-c3ccc(F)cc3)o2)c1.Cl",
    "group.label": "criterion met"
  },
  {
    "chemical.smiles": "O=C(Nc1ccc2c(c1)OCO2)NC1CCN(c2ccnc(NCc3ccc(F)cc3)n2)CC1",
    "group.label": "criterion met"
  },
  {
    "chemical.smiles": "COc1ccc(-c2cc3c(C)nc(N)nc3n([C@H]3CC[C@H](O)CC3)c2=O)cn1",
    "group.label": "criterion met"
  },
  {
    "chemical.smiles": "COc1cc2ncn(-c3cc(OCCCc4ccccc4)c(C(N)=O)s3)c2cc1OC",
    "group.label": "criterion not met"
  },
  {
    "chemical.smiles": "O=C(NCc1cccs1)c1cc(C(=O)c2c(Cl)cccc2Cl)c[nH]1",
    "group.label": "criterion met"
  },
  {
    "chemical.smiles": "CN1C(=O)C(Nc2cc(Cl)c(O)c(Cl)c2)=C(c2ccc(Cl)cc2)C1=O",
    "group.label": "criterion met"
  },
  {
    "chemical.smiles": "Cc1c(Cn2c(C)nn3c(=O)cc(N4CCO[C@H](C)C4)nc23)cccc1C(F)(F)F",
    "group.label": "criterion not met"
  }
]

Is it true that %Inh reported for COc1cc(Nc2ccnc3ccc(C(F)(F)F)cc23)cc(OC)c1OC is less than 4%? criterion not met
